target: AxCT mask27 EpCAM H90.2 L076 version 1

Protein | Percent cleavage [%]
MMP-1 (protein) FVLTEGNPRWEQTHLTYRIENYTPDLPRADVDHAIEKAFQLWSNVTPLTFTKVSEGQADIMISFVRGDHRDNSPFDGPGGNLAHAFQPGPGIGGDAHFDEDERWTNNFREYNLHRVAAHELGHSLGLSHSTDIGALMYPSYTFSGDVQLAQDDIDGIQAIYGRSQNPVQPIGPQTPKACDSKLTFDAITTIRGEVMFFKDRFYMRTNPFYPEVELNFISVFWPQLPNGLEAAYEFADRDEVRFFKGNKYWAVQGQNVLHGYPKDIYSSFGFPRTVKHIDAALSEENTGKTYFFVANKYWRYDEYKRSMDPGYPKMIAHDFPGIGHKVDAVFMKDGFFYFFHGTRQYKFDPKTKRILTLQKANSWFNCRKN | 0
Neutrophil Elastase (protein) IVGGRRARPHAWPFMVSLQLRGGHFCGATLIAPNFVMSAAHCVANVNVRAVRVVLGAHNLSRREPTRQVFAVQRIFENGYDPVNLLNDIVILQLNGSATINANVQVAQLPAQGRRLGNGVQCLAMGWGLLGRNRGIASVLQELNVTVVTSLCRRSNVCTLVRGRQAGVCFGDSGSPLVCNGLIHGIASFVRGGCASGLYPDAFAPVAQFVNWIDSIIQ | 6
MMP-7 (protein) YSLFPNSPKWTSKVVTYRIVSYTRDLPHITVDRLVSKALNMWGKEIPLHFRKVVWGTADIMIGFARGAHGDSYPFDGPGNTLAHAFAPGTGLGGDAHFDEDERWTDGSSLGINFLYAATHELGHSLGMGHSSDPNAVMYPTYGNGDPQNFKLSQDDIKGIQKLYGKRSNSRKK | 0
Cathepsin G (protein) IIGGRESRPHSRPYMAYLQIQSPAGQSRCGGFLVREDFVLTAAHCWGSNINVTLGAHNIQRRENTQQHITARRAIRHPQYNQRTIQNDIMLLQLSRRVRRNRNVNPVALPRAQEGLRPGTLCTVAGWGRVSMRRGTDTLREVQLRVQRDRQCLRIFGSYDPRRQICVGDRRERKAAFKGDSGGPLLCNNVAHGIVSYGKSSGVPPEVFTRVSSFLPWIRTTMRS | 0
MMP-12 (protein) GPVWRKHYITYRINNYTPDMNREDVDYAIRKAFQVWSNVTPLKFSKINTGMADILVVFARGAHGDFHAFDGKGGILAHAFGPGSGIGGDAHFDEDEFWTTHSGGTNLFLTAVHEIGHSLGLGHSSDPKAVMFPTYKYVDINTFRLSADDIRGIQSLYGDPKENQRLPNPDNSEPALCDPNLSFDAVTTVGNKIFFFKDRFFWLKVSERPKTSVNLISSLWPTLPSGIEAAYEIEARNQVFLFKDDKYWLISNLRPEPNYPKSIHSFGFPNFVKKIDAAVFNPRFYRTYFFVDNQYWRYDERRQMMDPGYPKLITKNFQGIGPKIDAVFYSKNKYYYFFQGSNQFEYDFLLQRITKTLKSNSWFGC | 0
Matriptase (protein) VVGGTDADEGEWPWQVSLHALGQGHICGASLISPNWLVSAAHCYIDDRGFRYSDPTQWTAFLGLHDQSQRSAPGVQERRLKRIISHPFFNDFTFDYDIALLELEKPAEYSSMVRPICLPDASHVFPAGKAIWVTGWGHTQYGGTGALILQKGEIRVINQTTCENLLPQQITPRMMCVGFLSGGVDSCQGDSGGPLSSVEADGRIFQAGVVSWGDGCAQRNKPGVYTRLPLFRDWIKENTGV | 0
